Where do these numbers come from? They come from patent EP0275431A1.

Tested on: mouse leukemia L-1210 cells
method: Antitumor activity: increase of life span of mice transplanted intraperitoneally with leukemia L-1210 cells
condition-description: Dose 0.15 mg/kg/day intraperitoneally for 9 consecutive days, beginning 24 hours after transplantation; observed for 30 days; CDF mice
readout-type: Increase of life span (T/C, %)
Answer format reminder: number followed by unit.

Please review the entries below; each comes with its answer.
# molecule, Increase of life span (T/C, %)
data = [
    ("COc1cccc2c1C(=O)c1c(O)c3c(c(O)c1C2=O)CC(O)(C(=O)COC(=O)CCCCC(=O)O)CC3OC1OC(C)C(O)C(O)C1F (stereo not shown) [Compound 9 of Example 4(b)]", "112%"),
    ("CCCCC(=O)OCC(=O)C1(O)Cc2c(O)c3c(c(O)c2C(OC2OC(C)C(O)C(O)C2F)C1)C(=O)c1c(OC)cccc1C3=O (stereo not shown) [Compound 3 of Example 1(b)]", "135%"),
    ("COc1cccc2c1C(=O)c1c(O)c3c(c(O)c1C2=O)CC(O)(C(=O)COC(=O)CCCCCC(=O)O)CC3OC1OC(C)C(O)C(O)C1F (stereo not shown) [Compound 11 of Example 5(b)]", "165%"),
]

Switching to the query record.
Quick check: Increase of life span (T/C, %) of COc1cccc2c1C(=O)c1c(O)c3c(c(O)c1C2=O)CC(O)(C(=O)COC(=O)CCCC(=O)O)CC3OC1OC(C)C(O)C(O)C1F (stereo not shown) [Compound 7 of Example 3(b)] ?
129%

====

System: mouse leukemia L-1210 cells
method: Antitumor activity: increase of life span of mice transplanted intraperitoneally with leukemia L-1210 cells
condition-description: Dose 0.6 mg/kg/day intraperitoneally for 9 consecutive days, beginning 24 hours after transplantation; observed for 30 days; CDF mice
readout-type: Increase of life span (T/C, %)
Express it in %; write the number only.

# compound, Increase of life span (T/C, %)
records = [
    ("COc1cccc2c1C(=O)c1c(O)c3c(c(O)c1C2=O)CC(O)(C(=O)COC(=O)CCCCCC(=O)O)CC3OC1OC(C)C(O)C(O)C1F (centres unmarked) [Compound 11 of Example 5(b)]", 176),
]

Switching to the query record.
Quick check: Increase of life span (T/C, %) of COc1cccc2c1C(=O)c1c(O)c3c(c(O)c1C2=O)CC(O)(C(=O)COC(=O)CCCCC(=O)O)CC3OC1OC(C)C(O)C(O)C1F (centres unmarked) [Compound 9 of Example 4(b)] ?
165

====

Listed here are compounds together with their documented solubility.
method: Solubility in phosphate buffer solution (pH 7.4) at room temperature
Format: physicochemical
condition-description: aqueous buffer
Experimental: The phosphate buffer solution was prepared by mixing 0.05M potassium dihydrogenphosphate (KH2PO4) with an aqueous solution of sodium hydroxide.
Express it in mg/mL; write the number only.

# compound, solubility [mg/mL]
measured = [
    ("COc1cccc2c1C(=O)c1c(O)c3c(c(O)c1C2=O)CC(O)(C(=O)COC(=O)CCCCC(=O)O)CC3OC1OC(C)C(O)C(O)C1F (stereo not shown) [Compound 9 of Example 4(b)]", 33),
]

Switching to the query record.
Quick check: solubility of COc1cccc2c1C(=O)c1c(O)c3c(c(O)c1C2=O)CC(O)(C(=O)COC(=O)CCCCCC(=O)O)CC3OC1OC(C)C(O)C(O)C1F (stereo not shown) [Compound 11 of Example 5(b)] ?
33

====

Test system: mouse leukemia L-1210 cells
method: Antitumor activity: increase of life span of mice transplanted intraperitoneally with leukemia L-1210 cells
condition-description: Dose 0.6 mg/kg/day intraperitoneally for 9 consecutive days, beginning 24 hours after transplantation; observed for 30 days; CDF mice
Listed here are compounds together with their documented Increase of life span (T/C, %).

Please review the entries below; each comes with its answer.
# compound, Increase of life span (T/C, %)
records = [
    ("COc1cccc2c1C(=O)c1c(O)c3c(c(O)c1C2=O)CC(O)(C(=O)COC(=O)CCC(=O)O)CC3OC1OC(C)C(O)C(O)C1F (stereo not drawn) [Compound 5 of Example 2(b)]", ">124%"),
    ("COc1cccc2c1C(=O)c1c(O)c3c(c(O)c1C2=O)CC(O)(C(=O)COC(=O)CCCC(=O)O)CC3OC1OC(C)C(O)C(O)C1F (stereo not drawn) [Compound 7 of Example 3(b)]", ">235%"),
]

Switching to the query record.
Quick check: Increase of life span (T/C, %) of CCCCC(=O)OCC(=O)C1(O)Cc2c(O)c3c(c(O)c2C(OC2OC(C)C(O)C(O)C2F)C1)C(=O)c1c(OC)cccc1C3=O (stereo not drawn) [Compound 3 of Example 1(b)] ?
>353%

====

method: Solubility in phosphate buffer solution (pH 7.4) at room temperature
Assay type: physicochemical
condition-description: aqueous buffer
readout-type: solubility (mg/mL)
Express it in mg/mL; write the number only.

# compound, readout-type, observed
data = [
    ("COc1cccc2c1C(=O)c1c(O)c3c(c(O)c1C2=O)CC(O)(C(=O)COC(=O)CCCC(=O)O)CC3OC1OC(C)C(O)C(O)C1F (centres unmarked)", "solubility", 26),
]

Quick check: solubility of COc1cccc2c1C(=O)c1c(O)c3c(c(O)c1C2=O)CC(O)(C(=O)COC(=O)CCCCCCC(=O)O)CC3OC1OC(C)C(O)C(O)C1F (centres unmarked) ?
30

Same for COc1cccc2c1C(=O)c1c(O)c3c(c(O)c1C2=O)CC(O)(C(=O)COC(=O)CCC(=O)O)CC3OC1OC(C)C(O)C(O)C1F (centres unmarked)
25
